// provenance: patent US20170355757A1

Target: T1, human C5 R885C-mmh (human, UniProt P01031 19-1676)
T1 construct: also called human C5 variant R885C
Assay: SPR, mAb captured via anti-hFc, 25C
test_readout: Kd (nM)
Numbers only here, please. The scale is nM.

Solved cases below.
H4H12167P (antibody, human IgG4, V domains shown, Human IgG4 Fc with S108P hinge mutation (H4H)) VH: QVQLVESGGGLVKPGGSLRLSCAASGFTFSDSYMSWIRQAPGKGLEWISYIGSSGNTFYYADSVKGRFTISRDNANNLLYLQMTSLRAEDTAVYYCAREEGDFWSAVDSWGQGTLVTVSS VL: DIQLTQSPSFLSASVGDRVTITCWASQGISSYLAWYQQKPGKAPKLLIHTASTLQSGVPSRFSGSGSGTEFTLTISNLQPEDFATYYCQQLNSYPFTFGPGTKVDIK : 0.413
H4H12171P (antibody, human IgG4, V domains shown, Human IgG4 Fc with S108P hinge mutation (H4H)) VH: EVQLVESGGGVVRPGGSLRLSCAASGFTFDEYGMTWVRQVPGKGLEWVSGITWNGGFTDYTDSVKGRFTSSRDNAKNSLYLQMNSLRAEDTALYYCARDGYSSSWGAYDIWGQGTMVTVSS VL: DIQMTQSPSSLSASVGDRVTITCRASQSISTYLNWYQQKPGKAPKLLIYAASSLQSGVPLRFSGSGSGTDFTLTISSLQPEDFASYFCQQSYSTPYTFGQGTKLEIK : 0.366

Here is the next item to consider.
response.value for H4H12159P (antibody, human IgG4, V domains shown, Human IgG4 Fc with S108P hinge mutation (H4H)) VH: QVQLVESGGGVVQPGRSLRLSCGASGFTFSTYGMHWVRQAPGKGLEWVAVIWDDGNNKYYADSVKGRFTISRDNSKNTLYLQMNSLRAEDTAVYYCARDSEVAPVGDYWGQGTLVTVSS VL: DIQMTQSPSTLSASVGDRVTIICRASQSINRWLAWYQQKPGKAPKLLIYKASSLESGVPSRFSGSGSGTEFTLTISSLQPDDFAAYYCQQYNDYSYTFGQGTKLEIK (field: Kd) = 0.289
